- Target or system: panel of more than 300 wild-type and mutant kinases (313 kinase panel) (Homo sapiens, UniProt Q96BR1)
- Assay method text: Kinase profiling in a biochemical assay panel (mobility shift assays and ELISA), %-inhibition at 1 μM; selectivity entropy
- Test conditions: kinase SGK3; 1 μM
Endpoint label: %-inhibition of SGK3 (%)
Numbers only, in %.

Cc1ccc(C(=O)Nc2ccc(CN3CCN(C)CC3)c(C(F)(F)F)c2)cc1C#Cc1cnc2cccnn12 : -1.1

For the 6 compounds below, give their %-inhibition of SGK3 values.
1. Cc1ccc(Nc2nccc(N(C)c3ccc4c(C)n(C)nc4c3)n2)cc1S(N)(=O)=O
2. CO[C@H]1C[C@@H]2CC[C@@H](C)[C@@](O)(O2)C(=O)C(=O)N2CCCC[C@H]2C(=O)O[C@H]([C@H](C)C[C@@H]2CC[C@@H](OCCO)[C@H](OC)C2)CC(=O)[C@H](C)/C=C(\C)[C@@H](O)[C@@H](OC)C(=O)[C@H](C)C[C@H](C)/C=C/C=C/C=C/1C
3. CC(C)(C)c1nc(-c2cccc(NS(=O)(=O)c3c(F)cccc3F)c2F)c(-c2ccnc(N)n2)s1
4. Cc1nc(Nc2ncc(C(=O)Nc3c(C)cccc3Cl)s2)cc(N2CCN(CCO)CC2)n1
5. O=S(=O)(c1cccc2cnccc12)N1CCCNCC1
6. C[C@@H](Oc1cc(-c2cnn(C3CCNCC3)c2)cnc1N)c1c(Cl)ccc(F)c1Cl

1: -3.17; 2: -6.4; 3: 0.0854; 4: 1.18; 5: 7; 6: -3

Which %-inhibition of SGK3 is reported for this compound? `CCCS(=O)(=O)Nc1ccc(F)c(C(=O)c2c[nH]c3ncc(-c4ccc(Cl)cc4)cc23)c1F`
-2.38

---

- Target or system: panel of more than 300 wild-type and mutant kinases (313 kinase panel) (Homo sapiens, UniProt P07949, S891A)
- Sequence (P07949 29-1114 S891A): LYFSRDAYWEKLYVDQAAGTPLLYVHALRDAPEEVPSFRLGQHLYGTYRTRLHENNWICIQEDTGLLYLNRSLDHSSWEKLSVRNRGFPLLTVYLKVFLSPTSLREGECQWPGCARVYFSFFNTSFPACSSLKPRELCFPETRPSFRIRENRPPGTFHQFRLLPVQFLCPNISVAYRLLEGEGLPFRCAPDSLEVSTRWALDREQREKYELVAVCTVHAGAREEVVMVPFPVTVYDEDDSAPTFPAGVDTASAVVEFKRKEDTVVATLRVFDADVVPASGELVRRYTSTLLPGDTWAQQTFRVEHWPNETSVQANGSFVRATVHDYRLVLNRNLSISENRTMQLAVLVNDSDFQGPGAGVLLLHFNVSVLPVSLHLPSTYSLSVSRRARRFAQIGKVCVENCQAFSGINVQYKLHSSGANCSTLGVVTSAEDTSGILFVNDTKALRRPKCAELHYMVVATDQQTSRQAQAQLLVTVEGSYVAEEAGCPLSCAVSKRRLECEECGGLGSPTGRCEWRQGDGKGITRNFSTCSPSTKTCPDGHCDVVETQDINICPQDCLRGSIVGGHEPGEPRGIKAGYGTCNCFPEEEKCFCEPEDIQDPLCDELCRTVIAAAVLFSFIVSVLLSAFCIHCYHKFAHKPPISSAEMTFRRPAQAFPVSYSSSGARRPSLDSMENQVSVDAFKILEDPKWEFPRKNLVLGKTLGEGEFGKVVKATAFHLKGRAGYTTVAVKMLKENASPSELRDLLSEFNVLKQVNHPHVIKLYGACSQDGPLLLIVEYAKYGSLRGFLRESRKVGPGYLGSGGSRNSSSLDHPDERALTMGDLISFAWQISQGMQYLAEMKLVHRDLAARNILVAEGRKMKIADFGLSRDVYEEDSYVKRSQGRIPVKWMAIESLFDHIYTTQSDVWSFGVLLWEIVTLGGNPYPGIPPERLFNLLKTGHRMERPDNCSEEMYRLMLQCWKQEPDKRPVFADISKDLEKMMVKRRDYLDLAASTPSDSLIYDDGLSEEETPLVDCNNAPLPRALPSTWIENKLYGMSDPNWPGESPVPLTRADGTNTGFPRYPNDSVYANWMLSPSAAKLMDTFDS
- Assay method text: Kinase profiling in a biochemical assay panel (mobility shift assays and ELISA), %-inhibition at 1 μM; selectivity entropy
- Test conditions: 1 µM
Hi there, I'd appreciate the recorded %-inhibition of RET(S891A) for every entry that follows.
Numbers only, in %.

Worked set:
Cc1cn(-c2cc(NC(=O)c3ccc(C)c(Nc4nccc(-c5cccnc5)n4)c3)cc(C(F)(F)F)c2)cn1 : 81
CS(=O)(=O)CCNCc1ccc(-c2ccc3ncnc(Nc4ccc(OCc5cccc(F)c5)c(Cl)c4)c3c2)o1 : 0.932
C#Cc1cccc(Nc2ncnc3cc(OCCOC)c(OCCOC)cc23)c1 : 93

Requested read-out: %-inhibition of RET(S891A). Entry: `CNC(=O)c1cc(Oc2ccc(NC(=O)Nc3ccc(Cl)c(C(F)(F)F)c3)c(F)c2)ccn1`
102

---

Please respond with reported %-inhibition of RSK2 for every item in the list.
- Target or system: panel of more than 300 wild-type and mutant kinases (313 kinase panel) (Homo sapiens, UniProt P51812)
- Assay method text: Kinase profiling in a biochemical assay panel (mobility shift assays and ELISA), %-inhibition at 1 μM; selectivity entropy
- Test conditions: kinase RSK2; 1 μM
One number for each entry, in %.

Examples from the recorded data:
Cc1cn(-c2cc(NC(=O)c3ccc(C)c(Nc4nccc(-c5cccnc5)n4)c3)cc(C(F)(F)F)c2)cn1 : 13
Cc1ccc(Nc2nccc(N(C)c3ccc4c(C)n(C)nc4c3)n2)cc1S(N)(=O)=O : 9
COc1cc2nccc(Oc3ccc(NC(=O)C4(C(=O)Nc5ccc(F)cc5)CC4)cc3)c2cc1OC [cabozantinib] : -3.61

Give me %-inhibition of RSK2 for each of these molecules, listed below.
1. CC(=O)Nc1cccc(-n2c(=O)n(C3CC3)c(=O)c3c(Nc4ccc(I)cc4F)n(C)c(=O)c(C)c32)c1
2. C[C@@H](Oc1cc(-c2cnn(C3CCNCC3)c2)cnc1N)c1c(Cl)ccc(F)c1Cl
3. N#CC[C@H](C1CCCC1)n1cc(-c2ncnc3[nH]ccc23)cn1

1. -1.76
2. 0.217
3. 9

Go through the items and report each one's %-inhibition of RSK2.
1. CCCS(=O)(=O)Nc1ccc(F)c(C(=O)c2c[nH]c3ncc(-c4ccc(Cl)cc4)cc23)c1F
2. CNC(=O)c1cc(Oc2ccc(NC(=O)Nc3ccc(Cl)c(C(F)(F)F)c3)c(F)c2)ccn1
3. Cc1ccc(C(=O)Nc2ccc(CN3CCN(C)CC3)c(C(F)(F)F)c2)cc1C#Cc1cnc2cccnn12
4. CO[C@H]1C[C@@H]2CC[C@@H](C)[C@@](O)(O2)C(=O)C(=O)N2CCCC[C@H]2C(=O)O[C@H]([C@H](C)C[C@@H]2CC[C@@H](OCCO)[C@H](OC)C2)CC(=O)[C@H](C)/C=C(\C)[C@@H](O)[C@@H](OC)C(=O)[C@H](C)C[C@H](C)/C=C/C=C/C=C/1C
5. CO[C@H]1C[C@@H]2CC[C@@H](C)[C@@](O)(O2)C(=O)C(=O)N2CCCC[C@H]2C(=O)O[C@H]([C@H](C)C[C@@H]2CC[C@@H](OC(=O)C(C)(CO)CO)[C@H](OC)C2)CC(=O)[C@H](C)/C=C(\C)[C@@H](O)[C@@H](OC)C(=O)[C@H](C)C[C@H](C)/C=C/C=C/C=C/1C

[-2.31, 6.66, 30, -1.35, -2.74]

Could I get %-inhibition of RSK2 for every one of these entries?
1. CS(=O)(=O)CCNCc1ccc(-c2ccc3ncnc(Nc4ccc(OCc5cccc(F)c5)c(Cl)c4)c3c2)o1
2. COc1cc2c(Nc3ccc(Br)cc3F)ncnc2cc1OCC1CCN(C)CC1

1: -1; 2: 5.7
